Target: T1, recombinant human TfR-1, His-tagged (Sino Biological 11020-H07H) (human, UniProt P02786 89-760)
T1 construct: bought; His-tagged; also called hTfR1; hTfR-1
T1 sequence (P02786 89-760 limits assumed): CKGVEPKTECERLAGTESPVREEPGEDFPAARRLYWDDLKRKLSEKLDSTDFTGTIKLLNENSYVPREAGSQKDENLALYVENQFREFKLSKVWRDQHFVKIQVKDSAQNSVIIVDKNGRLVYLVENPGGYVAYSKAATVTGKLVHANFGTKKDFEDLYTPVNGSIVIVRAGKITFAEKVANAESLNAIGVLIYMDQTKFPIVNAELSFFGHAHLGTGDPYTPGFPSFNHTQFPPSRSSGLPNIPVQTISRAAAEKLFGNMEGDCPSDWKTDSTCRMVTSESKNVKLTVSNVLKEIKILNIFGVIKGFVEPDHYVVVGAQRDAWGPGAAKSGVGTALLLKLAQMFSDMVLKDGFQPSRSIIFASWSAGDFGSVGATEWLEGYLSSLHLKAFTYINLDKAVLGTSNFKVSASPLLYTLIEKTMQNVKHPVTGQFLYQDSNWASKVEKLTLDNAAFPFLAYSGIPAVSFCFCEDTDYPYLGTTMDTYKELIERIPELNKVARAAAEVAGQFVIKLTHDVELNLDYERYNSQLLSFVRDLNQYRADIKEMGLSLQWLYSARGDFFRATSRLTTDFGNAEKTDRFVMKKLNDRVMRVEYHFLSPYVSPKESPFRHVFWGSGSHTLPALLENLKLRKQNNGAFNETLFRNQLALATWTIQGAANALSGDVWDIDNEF
Experiment: SPR, His-captured TfR1
assay.readout: kon (M⁻¹ s⁻¹)

(P) Clone C variant 9 VNAR-hFc (Fc fusion, not shown: a dimerising Fc or GST) ARVDQTPQTITKETGESLTINCVLRDSNCALSSTYWYRKKSGSTNEENISKGGRYVETVNSGSKSFSLRINDLTVEDSGTYRCNVVQWPTLSSPFWCDVYGDGTAVTVN
(Q) Clone C variant 19 VNAR-hFc (Fc fusion, not shown: a dimerising Fc or GST) ARVDQTPQTITKETGESLTINCVLRDSNCALSSTYWYRKKSGSTNEENISKGGRYVETVNSGSKSFSLRINDLTVEDSGTYRCNVVQYPRTNNYFWCDVYGDGTAVTVN
Q. Which of these two has the smaller recorded kon: P or Q ? In your reply, give the label of the chosen option.
A. P
